What IC50 was measured for each of the following?
biological target: P2X7 (Homo sapiens); experiment: IL-1β release assay in THP-1 cells (sandwich ELISA); format: cell-based; design: release of mature IL-1β in the culture medium of THP-1 cells; endogenous in cells; host or cells: THP-1 cells (PMA-differentiated, LPS-primed); conditions: PMA, LPS primed, stimulated with 0.8 mM BzATP, mature IL-1β release, read-out: hTHP-1/IL-ib IC50

Using the record for CCOC(=O)C1CCCN(c2ccc3c(C(=O)NCC4CCC(F)(F)CC4)c(Cl)ccc3n2)C1 (centres unmarked) , state its measured IC50.
> 1000 nM

Indicate the recorded IC50 value for this molecule: O=C(NCC1CCC(F)(F)CC1)c1c(Cl)ccc2nc(N3CC[C@@H](CCO)C3)ccc12
101 to 500 nM

Read the entry O=C(NCC1(O)CCCCCC1)c1c(Cl)ccc2nc(N3CCCC3)ccc12 and write its reported IC50.
10 to 100 nM

Write down IC50 measured for item O=C(NCC1(O)CCCC(F)(F)C1)c1c(Cl)ccc2nc(N3CCC3)ccc12 (centres unmarked)
101 to 500 nM

# return recorded IC50 for input CN(C)[C@H]1CCN(c2ccc3c(C(=O)NCC4(O)CCC(F)(F)CC4)c(Cl)ccc3n2)C1
10 to 100 nM

Give recorded IC50. C[C@@H]1CCC[C@](O)(CNC(=O)c2c(Cl)ccc3nc(N4CC[C@@H](F)C4)ccc23)C1
10 to 100 nM

Give me measured IC50, please, for this molecule: O=C(NCC1CCCC(F)(F)C1)c1c(Cl)ccc2nc(N3CC[C@@H](F)C3)ccc12 (some centres unmarked)
10 to 100 nM

Given the molecule O=C(NCC1CCC(F)(F)CC1)c1c(Cl)ccc2nc(N3CC[C@H](F)C3)ccc12 , write its reported IC50.
10 to 100 nM

* * *

Biological target: P2X7 (Homo sapiens)
Experiment: IL-1β release assay in THP-1 cells (sandwich ELISA)
Assay type: cell-based
Set-up: release of mature IL-1β in the culture medium of THP-1 cells; endogenous in cells; host or cells: THP-1 cells (PMA-differentiated, LPS-primed)
Conditions: PMA, LPS primed, stimulated with 0.8 mM BzATP, mature IL-1β release, read-out: hTHP-1/IL-ib IC50
Method: The activation of P2X7 by ATP leads to a fast transient activation of cells resulting in influx of Ca^2+ followed by conversion of pro-IL-1β to active IL-1β. The functional activity of P2X7 compounds was measured by the release of mature IL-1β in the culture medium of THP-1 cells, detected by sandwich ELISA. […] The cells were centrifuged, supernatant was collected and the presence of mature IL-1β was detected using Dual human IL-1b kit following manufacturer's instruction. […]
Please go through the items and note down their IC50.

Using the record for CN(C)C1CCN(c2ccc3c(C(=O)NCC4(O)CCC(F)(F)CC4)c(Cl)ccc3n2)C1 (stereo not shown) [Compound 28] , state its measured IC50.
10 to 100 nM

Answer with the recorded IC50 of O=C(NCC1(O)CCC(F)(F)CC1)c1c(Cl)ccc2ncccc12 [Compound 76] only.
10 to 100 nM

Please supply the value of reported IC50 for the item CN(C)c1ccc2c(C(=O)NCC3CCC(F)(F)CC3)c(Cl)ccc2n1 [Compound 44]
10 to 100 nM

Tell me measured IC50 for O=C(NCC1CCC(F)(F)CC1)c1c(Cl)ccc2ncccc12 [Compound 78] please.
10 to 100 nM

Report IC50, nothing else, for this molecule: O=C(NCC1CCC(F)(F)CC1)c1c(Cl)ccc2nc(NCCCO)ccc12 [Compound 60]
101 to 500 nM

Supply recorded IC50 for COCCOc1ccc2c(C(=O)NCC3CCC(F)(F)CC3)c(Cl)ccc2n1 [Compound 70] here.
101 to 500 nM

Indicate the recorded IC50 value for this molecule: O=C(NCC1CCC(F)(F)CC1)c1c(Cl)ccc2nc(N3CCC(C(F)F)C3)ccc12 (stereo not shown) [Compound 59]
101 to 500 nM

* * *

target: P2X7 (Homo sapiens, UniProt Q99572); assay: Pore permeation assay (YO PRO dye uptake, BzATP-induced); assay type: cell-based; design: expressed in transfected cells; host or cells: HEK293; conditions: HEK293 transfected with human P2X7 receptor; YO PRO dye 1 uM, BzATP 10 uM; read-out: hP2X7 IC50
Sequence (Q99572 whole entry): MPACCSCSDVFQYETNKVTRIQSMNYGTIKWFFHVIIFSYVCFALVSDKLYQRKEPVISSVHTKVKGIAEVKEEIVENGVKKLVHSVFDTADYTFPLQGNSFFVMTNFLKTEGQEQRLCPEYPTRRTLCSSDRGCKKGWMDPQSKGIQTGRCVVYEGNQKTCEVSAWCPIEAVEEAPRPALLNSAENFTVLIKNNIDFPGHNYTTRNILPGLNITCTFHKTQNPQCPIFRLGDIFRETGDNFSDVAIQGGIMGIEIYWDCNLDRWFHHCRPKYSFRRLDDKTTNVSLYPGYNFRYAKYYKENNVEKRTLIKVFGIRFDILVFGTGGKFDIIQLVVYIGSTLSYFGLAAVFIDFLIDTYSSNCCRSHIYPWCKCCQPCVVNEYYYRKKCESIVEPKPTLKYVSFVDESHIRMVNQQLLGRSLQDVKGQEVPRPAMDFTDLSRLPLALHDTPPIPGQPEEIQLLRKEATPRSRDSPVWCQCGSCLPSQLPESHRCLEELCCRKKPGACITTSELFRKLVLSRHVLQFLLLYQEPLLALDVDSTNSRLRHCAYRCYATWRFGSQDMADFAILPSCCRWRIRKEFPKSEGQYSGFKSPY
property measured: IC50

Specify IC50 for C[C@@H]1CCC[C@](O)(CNC(=O)c2c(Cl)ccc3nc(N4CC[C@H](F)C4)ccc23)C1 and stop.
< 10 nM

Provide IC50 value for the following compound: O=C(NCC1CCCC(F)(F)C1)c1c(Cl)ccc2nc(N3CCC(CO)C3)ccc12 (stereo not shown)
10 to 100 nM

// Input: C[C@@H]1CCC[C@](O)(CNC(=O)c2c(Cl)ccc3nc(N4CC[C@@H](N(C)C)C4)ccc23)C1 . Output its IC50 only.
10 to 100 nM

Supply IC50 value. Item: O=C(NCC1CCC(F)(F)CC1)c1c(Cl)ccc2nc(N3CCC(CCO)C3)ccc12 (stereo not shown)
10 to 100 nM

For the compound O=C(NCC1(O)CCCC(F)(F)C1)c1c(Cl)ccc2nc(N3CC[C@@H](F)C3)ccc12 (stereo partly shown) , report IC50.
10 to 100 nM

Report IC50, nothing else, for this compound: O=C(NCC1CCC(F)(F)CC1)c1c(Cl)ccc2nc(N3CC[C@@H](CO)C3)ccc12
< 10 nM

For the compound CC1CCCC(O)(CNC(=O)c2c(Cl)ccc3nc(N4CC[C@@H](N(C)C)C4)ccc23)C1 (stereo partly shown) , give its reported IC50.
< 10 nM

Give the value of IC50 reported for the following: O=C(NCC1(O)CCC(F)(F)CC1)c1c(Cl)ccc2ncccc12
101 to 500 nM

Return value of IC50 for input NC1CCN(c2ccc3c(C(=O)NCC4(O)CCCC(F)(F)C4)c(Cl)ccc3n2)C1 (stereo not shown) , no commentary.
10 to 100 nM

Using the record for COCCNc1ccc2c(C(=O)NCC3CCC(F)(F)CC3)c(Cl)ccc2n1 , state its measured IC50.
10 to 100 nM

Give recorded IC50. O=C(NCC1CCC(F)(F)CC1)c1c(Cl)ccc2nc(C3=CCCC3)ccc12
10 to 100 nM

Specify measured IC50 for CN(C)C1CCN(c2ccc3c(C(=O)NCC4CCC(F)(F)CC4)c(Cl)ccc3n2)C1 (stereo not shown) .
10 to 100 nM

Report IC50, nothing else, for this compound: NC1CCN(c2ccc3c(C(=O)NCC4CCC(F)(F)CC4)c(Cl)ccc3n2)C1 (stereo not shown)
< 10 nM

Identify measured IC50 corresponding to O=C(NCC1CCCC(F)(F)C1)c1c(Cl)ccc2nc(N3CC[C@@H](F)C3)ccc12 (stereo partly shown)
< 10 nM

Respond only with IC50 recorded for O=C(NCC1(O)CCCCCC1)c1c(Cl)ccc2ncccc12
10 to 100 nM

Tell me measured IC50 for O=C(NCC1CCC(F)(F)CC1)c1c(Cl)ccc2nc(N3CCCC(C(=O)O)C3)ccc12 (stereo not shown) please.
101 to 500 nM

Identify measured IC50 associated with COCCOc1ccc2c(C(=O)NCC3CCC(F)(F)CC3)c(Cl)ccc2n1
10 to 100 nM

Let me know recorded IC50 for CN(C)C1CCN(c2ccc3c(C(=O)NCC4(O)CCC(F)(F)CC4)c(Cl)ccc3n2)C1 (stereo not shown) , thanks.
10 to 100 nM

Answer with the recorded IC50 for the compound listed here: O=C(NCC1CCC(F)(F)CC1)c1c(Cl)ccc2nc(C3CCNCC3)ccc12
10 to 100 nM

* * *

molecular target: P2X7 (Homo sapiens); assay: Pore permeation assay (YO PRO dye uptake, BzATP-induced); type: cell-based; parameters: expressed in transfected cells; host or cells: HEK293; settings: HEK293 transfected with human P2X7 receptor; YO PRO dye 1 uM, BzATP 10 uM; read-out: hP2X7 IC50
property measured: IC50

Using known records, supply IC50 for COCCCOc1ccc2c(C(=O)NCC3CCC(F)(F)CC3)c(Cl)ccc2n1 [Compound 69]
0.01 to 0.1 µM

Please give measured IC50 of the following entry: CCOC(=O)CCNc1ccc2c(C(=O)NCC3CCC(F)(F)CC3)c(Cl)ccc2n1 [Compound 81]
0.101 to 0.5 µM

Quote IC50 reported for O=C(NCC1(O)CCCC(F)(F)C1)c1c(Cl)ccc2nc(N3CC(F)(F)C3)ccc12 (stereo not drawn) [Compound 75] please.
0.101 to 0.5 µM

* * *

Would you mind telling me the reported pIC50 of each entry?
Target: P2X7 (Homo sapiens, UniProt Q99572)
Assay: Pore permeation assay (YO PRO dye uptake, BzATP-induced)
Format: cell-based
Parameters: expressed in transfected cells; host or cells: HEK293
Conditions: HEK293 transfected with human P2X7 receptor; YO PRO dye 1 uM, BzATP 10 uM; read-out: hP2X7 IC50
Description: Agonist-induced pore formation was determined by measuring cellular uptake of YO PRO fluorescence dye in HEK293 transfected with human P2X7 receptor. […] The viability of cells was determined by Trypan blue dye and the cells are plated @ 10,000 cell/well in 50 ul volume in a 384 W BD Poly lysine coated plate and incubated overnight at 37 C. […] The uptake of YO PRO dye into the cells was measured using Envision Fluorescence plate reader instrument (Perkin Elmer).
pIC50: −log10 of the molar value.

For the compound O=C1C=C(c2ccc3c(C(=O)NCC4CCC(F)(F)CC4)c(Cl)ccc3n2)CC1 [Compound 72] , give its measured pIC50 value.
7.00 to 8.00

Please supply the value of reported pIC50 for the item O=C(NCC1CCC(F)(F)CC1)c1c(Cl)ccc2nc(N3CC[C@H](F)C3)ccc12 [Compound 41]
7.00 to 8.00

Respond only with pIC50 recorded for O=C(NCC1CCC(F)(F)CC1)c1c(Cl)ccc2nc(N3CC[C@@H](O)C3)ccc12 [Compound 61]
7.00 to 8.00

Specify reported pIC50 for the compound shown: O=C(NCC1(O)CCCC(F)(F)C1)c1c(Cl)ccc2nc(N3CCC3)ccc12 (stereo not drawn) [Compound 54]
7.00 to 8.00

Please report the measured pIC50 for O=C(NCC1CCC(F)(F)CC1)c1c(Cl)ccc2nc(C3CCOCC3)ccc12 [Compound 47]
7.00 to 8.00

Tell me measured pIC50 for O=C(NCC1CCCC(F)(F)C1)c1c(Cl)ccc2nc(N3CCC(F)C3)ccc12 (stereo not drawn) [Compound 39] please.
7.00 to 8.00

Assign pIC50 to the following record: O=C(NCC1CCC(F)(F)CC1)c1c(Cl)ccc2nc(N3CCC(NCCO)C3)ccc12 (stereo not drawn) [Compound 21]
7.00 to 8.00

Return the recorded pIC50 value; entry: C[C@@H]1CCC[C@](O)(CNC(=O)c2c(Cl)ccc3nc(N4CCC(N5CCCC5)C4)ccc23)C1 (stereo partly drawn) [Compound 13]
> 8.00

Provide measured pIC50 value, entry: C[C@H]1CCC[C@@](O)(CNC(=O)c2c(Cl)ccc3nc(N4CCCC4)ccc23)C1 [Compound 2]
> 8.00

From: patent US9399623B2
